test system: Saccharomyces cerevisiae; assay: Antifungal activity against Saccharomyces cerevisiae ATCC 9763 after 24 hrs by micro broth dilution method; format: functional; conditions: ATCC 9763, 24 h
MIC80 overview
Form entry: value (µg/mL) — number only.

Example molecules with recorded MIC80:
smiles code	result unit	MIC80
COC(=O)c1cn(C2CC2)c2cc(N3CCN(/C=N\c4nc5ccccc5[nH]4)CC3)c(F)cc2c1=O	µg/mL	2
CCCCCn1c(CN2CCN(c3cc4c(cc3F)c(=O)c(C(=O)O)cn4C3CC3)CC2)nc2ccccc21	µg/mL	256
CCn1cc(C(=O)O)c(=O)c2cc(F)c(N3CCN(Cc4nc5ccccc5[nH]4)CC3)cc21	µg/mL	0.5
CCn1cc(C(=O)OC)c(=O)c2cc(F)c(N3CCN(/C=N\c4nc5ccccc5[nH]4)CC3)cc21	µg/mL	32
O=C(O)c1cn(C2CC2)c2cc(N3CCN(Cc4nc5ccccc5n4Cc4ccccc4Cl)CC3)c(F)cc2c1=O	µg/mL	16

Report MIC80 for O=C(O)c1cn(C2CC2)c2cc(N3CCN(Cc4nc5ccc([N+](=O)[O-])cc5[nH]4)CC3)c(F)cc2c1=O please. 4

// MIC80 lookup, key: CCCCCCCCCCCCCCCCCCn1c(CN2CCN(c3cc4c(cc3F)c(=O)c(C(=O)O)cn4CC)CC2)nc2ccccc21 128

###

test system: Pseudomonas aeruginosa; assay: Antibacterial activity against Pseudomonas aeruginosa ATCC 27853 by micro broth dilution method; format: functional
Here the recorded MIC is given for each entry.
For clarity, give the value followed by its unit.

Give MIC (Pseudomonas aeruginosa) of the following compound: CCn1cc(C(=O)O)c(=O)c2cc(F)c(N3CCN(Cc4nc5ccccc5n4Cc4ccc([N+](=O)[O-])cc4)CC3)cc21 4 µg/mL

Entry CCCCCCCCn1c(CN2CCN(c3cc4c(cc3F)c(=O)c(C(=O)O)cn4CC)CC2)nc2ccccc21 , system Pseudomonas aeruginosa: what MIC was measured? 2 µg/mL

Report MIC for O=C(O)c1cn(C2CC2)c2cc(N3CCN(Cc4nc5ccc(Br)cc5[nH]4)CC3)c(F)cc2c1=O tested on Pseudomonas aeruginosa. 1 µg/mL

API: value(readout=MIC, system=Pseudomonas aeruginosa) for record CCCCCCn1c(CN2CCN(c3cc4c(cc3F)c(=O)c(C(=O)O)cn4C3CC3)CC2)nc2ccccc21 16 µg/mL

Form entry - test system: Pseudomonas aeruginosa; read-out: MIC; compound: O=C(O)c1cn(C2CC2)c2cc(N3CCN(Cc4nc5ccccc5n4Cc4ccccc4Cl)CC3)c(F)cc2c1=O 2 µg/mL

For the record O=C(O)c1cn(C2CC2)c2cc(N3CCN(Cc4nc5ccccc5n4Cc4ccc(F)cc4)CC3)c(F)cc2c1=O , what value of MIC is listed for Pseudomonas aeruginosa? 8 µg/mL

Give MIC (Pseudomonas aeruginosa) of the following compound: COC(=O)c1cn(C2CC2)c2cc(N3CCN(/C=N\c4nc5ccccc5[nH]4)CC3)c(F)cc2c1=O 2 µg/mL

I'm curious: which MIC was measured for CCn1cc(C(=O)O)c(=O)c2cc(F)c(N3CCN(Cc4nc5ccc(Cl)cc5[nH]4)CC3)cc21 tested on Pseudomonas aeruginosa? 1 µg/mL

GET /values?readout=MIC&system=Pseudomonas aeruginosa&item= CCCCCCCCCCn1c(CN2CCN(c3cc4c(cc3F)c(=O)c(C(=O)O)cn4C3CC3)CC2)nc2ccccc21 32 µg/mL

Request: MIC, test system Pseudomonas aeruginosa, entry CCn1cc(C(=O)O)c(=O)c2cc(F)c(N3CCN(Cc4nc5ccccc5n4Cc4ccccc4Cl)CC3)cc21 1 µg/mL

###

test system: Staphylococcus aureus; test: Antibacterial activity against Staphylococcus aureus ATCC 25923 by micro broth dilution method; type: functional
A collection of compounds and their measured MIC
Provide the reading as a plain figure in µg/mL.

smiles code	result unit	reported result
CCCCCCCCn1c(CN2CCN(c3cc4c(cc3F)c(=O)c(C(=O)O)cn4C3CC3)CC2)nc2ccccc21	µg/mL	16
CCn1cc(C(=O)O)c(=O)c2cc(F)c(N3CCN(Cc4nc5ccccc5n4Cc4ccccc4F)CC3)cc21	µg/mL	512
CCCn1c(CN2CCN(c3cc4c(cc3F)c(=O)c(C(=O)O)cn4C3CC3)CC2)nc2ccccc21	µg/mL	32
CCn1cc(C(=O)O)c(=O)c2cc(F)c(N3CCN(Cc4nc5ccc(Cl)cc5[nH]4)CC3)cc21	µg/mL	2

For Staphylococcus aureus, provide MIC of CCCCCn1c(CN2CCN(c3cc4c(cc3F)c(=O)c(C(=O)O)cn4CC)CC2)nc2ccccc21 please. 512

###

test: Antifungal activity against Candida mycoderma ATCC 9888 after 24 hrs by micro broth dilution method; format: functional; settings: Candida vini
quantity name: MIC80
Include the unit right after the number.

smiles code	MIC80
CCn1cc(C(=O)O)c(=O)c2cc(F)c(N3CCN(Cc4nc5ccccc5[nH]4)CC3)cc21	1 µg/mL

Would you kindly share the measured MIC80 for CCCCCCCCn1c(CN2CCN(c3cc4c(cc3F)c(=O)c(C(=O)O)cn4C3CC3)CC2)nc2ccccc21 ? 1 µg/mL

Suppose we examine the molecule CCCCCCCCCCCCCCCCCCn1c(CN2CCN(c3cc4c(cc3F)c(=O)c(C(=O)O)cn4C3CC3)CC2)nc2ccccc21 ; what MIC80 value has been reported? 64 µg/mL

# lookup: MIC80 of CCCCCCCCCCCCn1c(CN2CCN(c3cc4c(cc3F)c(=O)c(C(=O)O)cn4C3CC3)CC2)nc2ccccc21 4 µg/mL

###

# MIC per entry
system: Escherichia coli; assay: Antibacterial activity against Escherichia coli DH52 by micro broth dilution method; type: functional

Use these answered entries as a reference point.
smiles code	reported result
CCn1cc(C(=O)O)c(=O)c2cc(F)c(N3CCN(Cc4nc5ccccc5n4Cc4ccc([N+](=O)[O-])cc4)CC3)cc21	16 mg/L
CCn1cc(C(=O)OC)c(=O)c2cc(F)c(N3CCN(/C=N\c4nc5ccccc5[nH]4)CC3)cc21	32 mg/L
CCCCCCn1c(CN2CCN(c3cc4c(cc3F)c(=O)c(C(=O)O)cn4CC)CC2)nc2ccccc21	4 mg/L
O=C(O)c1cn(C2CC2)c2cc(N3CCN(Cc4nc5ccccc5[nH]4)CC3)c(F)cc2c1=O	0.125 mg/L
CCn1cc(C(=O)O)c(=O)c2cc(F)c(N3CCN(CNc4nc5ccccc5[nH]4)CC3)cc21	1 mg/L

Look up MIC with Escherichia coli for this compound: CCCn1c(CN2CCN(c3cc4c(cc3F)c(=O)c(C(=O)O)cn4C3CC3)CC2)nc2ccccc21 1 mg/L

Checklist item: MIC tested on Escherichia coli, entry O=C(O)c1cn(C2CC2)c2cc(N3CCN(Cc4nc5ccccc5n4Cc4cccc(F)c4)CC3)c(F)cc2c1=O , value? 256 mg/L
